From: patent US20250282866A1

Binding Signal (fold over 6E7 Parental antibody): recorded values
Target: T1, human TREM2 (human, UniProt Q9NZC2 19-174, limits assumed)
T1 construct: also called triggering receptor expressed on myeloid cells 2
T1 sequence: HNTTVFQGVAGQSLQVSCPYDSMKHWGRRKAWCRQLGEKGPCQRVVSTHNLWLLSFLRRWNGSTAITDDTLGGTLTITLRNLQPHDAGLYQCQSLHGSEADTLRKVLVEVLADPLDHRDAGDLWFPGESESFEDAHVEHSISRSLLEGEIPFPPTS
Assay: 2nd screen 100 nM
Output spec: scalar in fold, unitless text.

For orientation, consider the following solved cases.
binder: V91 (antibody, V domains shown) VH: EVQLVQSGAEVKKPGESLKISCKGSGYSFTSYWIAWVRQMPGKGLEWMGIIYPDDSDTRYSPSFQGQVTISADKSISTAYLQWSSLKASDTAMYFCARQRTFYYDSSDYFDYWGQGTLVTVSS VL: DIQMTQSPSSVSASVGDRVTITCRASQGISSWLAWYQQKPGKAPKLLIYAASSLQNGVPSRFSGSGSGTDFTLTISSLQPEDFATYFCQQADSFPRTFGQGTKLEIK
measured number: 0.61
//
binder: V79 (antibody, V domains shown) VH: EVQLVQSGAEVKKPGESLKISCKGSGYSFTSYWIAWVRQMPGKGLEWMGIIYPGDSDTNYSPSFQGQVTISADKSISTAYLQWSSLKASDTAMYFCARQRTFYYDSSDYFDYWGQGTLVTVSS VL: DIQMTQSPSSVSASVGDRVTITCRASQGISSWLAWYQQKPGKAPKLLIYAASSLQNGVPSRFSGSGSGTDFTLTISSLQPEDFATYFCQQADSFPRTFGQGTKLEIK
measured number: 0.52
//
binder: V94 (antibody, V domains shown) VH: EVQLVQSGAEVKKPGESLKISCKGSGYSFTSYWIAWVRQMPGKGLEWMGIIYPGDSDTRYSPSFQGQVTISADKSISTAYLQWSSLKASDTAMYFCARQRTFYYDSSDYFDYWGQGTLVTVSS VL: DIQMTQSPSSVSASVGDRVTITCRASQGISSWLAWYQQKPGKAPKLLIYAAASLQNGVPSRFSGSGSGTDFTLTISSLQPEDFATYFCQQADSFPRTFGQGTKLEIK
measured number: 0.87
//
binder: V56 (antibody, V domains shown) VH: EVQLVQSGAEVKKPGESLKISCKGSGYSFTSYWIAWVRQMPGKGLEWMGIIYPGDSDTRYQPSFQGQVTISADKSISTAYLQWSSLKASDTAMYFCARQRTFYYDSSDYFDYWGQGTLVTVSS VL: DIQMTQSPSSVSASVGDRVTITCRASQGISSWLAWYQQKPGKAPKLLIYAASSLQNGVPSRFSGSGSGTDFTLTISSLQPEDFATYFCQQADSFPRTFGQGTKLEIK
measured number: 0.59

Field: next binder
Q: Return Binding Signal (fold over 6E7 Parental antibody) for the following binder: V45 (antibody, V domains shown) VH: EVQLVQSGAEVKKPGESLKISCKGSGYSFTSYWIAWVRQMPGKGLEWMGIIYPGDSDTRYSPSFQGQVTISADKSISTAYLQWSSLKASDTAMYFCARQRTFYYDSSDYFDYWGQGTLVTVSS VL: DIQMTQSPSSVSASVGDRVTITCRASQGISSFLAWYQQKPGKAPKLLIYAASSLQNGVPSRFSGSGSGTDFTLTISSLQPEDFATYFCQQADSFPRTFGQGTKLEIK
A: 0.53
